Reference for the values: the supplement of paper PMC6555819

System: VDR homodimer (NR concentration 270 nM)
Assay: PBM binding z-score (relative to random genomic background probes); higher = stronger binding; sequences stand for … in GC…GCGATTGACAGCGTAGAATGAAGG
Rule: PBM binding z-score of 0.4 or more gives Satisfied; anything lower gives Not satisfied.

sequence-text | category-label
ATTTCTAGGTAAAAGTTCAGTGAATCCCGAGGAT | Satisfied
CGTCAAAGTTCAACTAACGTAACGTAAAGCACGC | Satisfied
CCGACTGTGGCAAGGTTACCATAACGCACAGCCA | Not satisfied
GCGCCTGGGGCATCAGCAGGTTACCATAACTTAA | Not satisfied
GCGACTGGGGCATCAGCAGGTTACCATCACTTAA | Not satisfied
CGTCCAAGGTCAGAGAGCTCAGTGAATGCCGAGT | Satisfied
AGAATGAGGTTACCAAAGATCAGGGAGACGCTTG | Satisfied
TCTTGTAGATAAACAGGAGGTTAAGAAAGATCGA | Not satisfied
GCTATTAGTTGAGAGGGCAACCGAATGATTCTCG | Satisfied
ACTATTAGTTGACTTAGGGCAGCCGATACGACGC | Not satisfied
CCTTTTAGTTGACCATAAGGGCAACCGAAGCTCG | Satisfied

====

System: RARg homodimer (NR concentration 270 nM)
Assay: PBM binding z-score (relative to random genomic background probes); higher = stronger binding; sequences stand for … in GC…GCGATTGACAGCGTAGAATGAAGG

sequence-text | PBM binding z-score
CGTCCAAGGTCATCGGAGGTCAGTGAAGACAGAT | 7.72
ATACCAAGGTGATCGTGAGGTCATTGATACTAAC | 3.31
CCTATTAGTTGACCATAAGGTCAACCGAAGCTCG | 4.07
CCTCGGAGGACAACAGGAAGTCAGAGCTGCCAGA | 1.06
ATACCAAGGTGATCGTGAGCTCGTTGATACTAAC | 0.19
TCGAGTAGGTTAGGGGCATTCGGAATGGCGTCGA | -0.0301
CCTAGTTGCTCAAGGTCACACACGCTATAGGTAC | 4.78
AGAATGAGGTTATACGTGGATCAGGGAAGAAAGT | 0.925
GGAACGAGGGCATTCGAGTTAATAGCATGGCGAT | 1.59
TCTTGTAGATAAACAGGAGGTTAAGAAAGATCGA | 0.451
GCTATTAGTTGAAAGGGAAACCGAATGATTCTCG | 0.0889
ATCTCTAGGTAAAAGTTCAGTAAATCCCGAGGAT | 1.94
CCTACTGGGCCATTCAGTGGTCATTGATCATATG | 0.159
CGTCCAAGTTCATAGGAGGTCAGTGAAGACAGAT | 5.14
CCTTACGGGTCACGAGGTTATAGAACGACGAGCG | 5.59
ATCTCGAGGTAAAAGTTCAGTGAATCCCGAGGAT | 1.86
TCGAGTAGGTTACCAAAGGGGCATTCAGCTTTCT | 0.617
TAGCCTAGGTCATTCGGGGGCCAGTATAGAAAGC | 5.25
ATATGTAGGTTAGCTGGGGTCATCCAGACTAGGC | 3.52
CGTCCAAGGTCATCAGGTCAGTGAAAGCGACGTG | 6.99
TCTGCTAGGTCAACGACGGTCAGCTAATCTGCTA | 5.58
TCTTGTAGATCAATAGAGTTTAAGAAAGTGCGCT | 0.187
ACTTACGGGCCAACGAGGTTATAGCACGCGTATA | 0.949
CCTGCTAGGTCACTGGTCAGCTAAAGCAGCTCGC | 4.65
AATACAGGGTCATCGTAGGCCAGAGTACGCACAG | 5.05
TCCTGTAGATCAGCAGGTTAAGAAAGCTGGCCAA | -0.286
